Field: inhibition at 1 µM. Provide a value for each of the compounds that follow.
target: serotonin transporter (SERT) (Homo sapiens, UniProt P31645); construct: expressed in transfected cells; host or cells: CHO cells; assay: Radioligand binding assay, serotonin transporter (SERT); settings: binding assay, test compound 1×10^−6 M
Sequence (P31645 whole entry): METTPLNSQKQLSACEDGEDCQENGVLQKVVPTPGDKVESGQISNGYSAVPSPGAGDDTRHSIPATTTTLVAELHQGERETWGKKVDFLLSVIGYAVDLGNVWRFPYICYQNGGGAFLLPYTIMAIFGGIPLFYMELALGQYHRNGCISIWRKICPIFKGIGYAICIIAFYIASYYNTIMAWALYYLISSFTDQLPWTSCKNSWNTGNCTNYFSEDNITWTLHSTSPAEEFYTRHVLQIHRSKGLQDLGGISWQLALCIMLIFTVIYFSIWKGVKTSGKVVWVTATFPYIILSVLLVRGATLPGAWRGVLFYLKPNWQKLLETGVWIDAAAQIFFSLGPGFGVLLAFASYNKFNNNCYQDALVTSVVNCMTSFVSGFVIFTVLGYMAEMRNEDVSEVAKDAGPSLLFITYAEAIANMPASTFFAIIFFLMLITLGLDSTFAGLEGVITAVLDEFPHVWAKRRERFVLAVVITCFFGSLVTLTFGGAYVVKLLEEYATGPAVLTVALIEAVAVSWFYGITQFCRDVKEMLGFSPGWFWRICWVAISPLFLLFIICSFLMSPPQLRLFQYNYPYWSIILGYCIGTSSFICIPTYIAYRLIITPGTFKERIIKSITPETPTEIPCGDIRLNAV
Answers are plain numbers, in %.

These solved cases illustrate the format of a correct answer.
* O=S(=O)(NC1CCN(CCCc2noc3cc(F)ccc23)C1)c1ccc2c(c1)OCC2 (centres unmarked) | -10
* O=S(=O)(N[C@@H]1CCN(CCCc2noc3cc(F)ccc23)C1)c1cc2ccc(Cl)cc2s1 | 44
* Cc1c(S(=O)(=O)NC2CCN(CCCc3noc4cc(F)ccc34)C2)sc2ccc(Cl)cc12 (centres unmarked) | 44
* O=S(=O)(NC1CCN(CCCc2c[nH]c3ccc(F)cc23)C1)c1ccc(F)cc1 (centres unmarked) | 103
* Cc1c(S(=O)(=O)NCC2CCN(CCOc3cccc4ccccc34)C2)sc2ccc(F)cc12 (centres unmarked) | 40
* Cc1c(S(=O)(=O)N[C@H]2CCN(CCCc3noc4cc(F)ccc34)C2)sc2ccc(Cl)cc12 | 45
* O=S(=O)(NC1CCN(CCCc2noc3cc(F)ccc23)CC1)c1cccc2ccccc12 | 43
* O=S(=O)(NCC1CCN(CCCc2noc3cc(F)ccc23)C1)c1ccc2ccccc2c1 (centres unmarked) | 43
* Cc1cccc(S(=O)(=O)NC2CN(CCOc3cccc4[nH]ccc34)C2)c1 | -3
* CC(C)(C)c1ccc(S(=O)(=O)NC2CCN(CCCc3noc4cc(F)ccc34)CC2)cc1 | 25

Look at each compound and report its inhibition at 1 µM.
1. Cc1ccc2sc(S(=O)(=O)NC3CCN(CCCc4noc5cc(F)ccc45)C3)cc2c1 (centres unmarked)
2. O=S(=O)(NC1CCN(CCCc2noc3cc(F)ccc23)C1)c1cc2ccccc2s1 (centres unmarked)
3. O=S(=O)(NCC1CN(CCOc2cccc3c2OCCO3)C1)c1ccsc1
4. O=S(=O)(NCC1CN(CCOc2cccc3c2OCCO3)C1)c1ccc(F)cc1
5. Cn1ccc2c(S(=O)(=O)NCC3CCN(CCOc4cccc5ccccc45)C3)cccc21 (centres unmarked)
6. O=S(=O)(NC1CCN(CCCc2noc3cc(F)ccc23)C1)c1ccc(Cl)cc1 (centres unmarked)

Result:
1: 54; 2: 42; 3: 32; 4: -7; 5: 93; 6: -2

Task: Tell me inhibition at 1 µM reported for Cc1cc(S(=O)(=O)NCC2CCN(CCCc3noc4cc(F)ccc34)C2)c(C)s1 (centres unmarked)
Result: 26

###

target: 5-HT1A serotoninergic receptors (Homo sapiens, UniProt P08908); assay: Cellular functional assay, 5-HT1A serotoninergic receptors; assay type: cell-based; conditions: agonist mode; percent of control specific agonist response
Sequence (P08908 whole entry): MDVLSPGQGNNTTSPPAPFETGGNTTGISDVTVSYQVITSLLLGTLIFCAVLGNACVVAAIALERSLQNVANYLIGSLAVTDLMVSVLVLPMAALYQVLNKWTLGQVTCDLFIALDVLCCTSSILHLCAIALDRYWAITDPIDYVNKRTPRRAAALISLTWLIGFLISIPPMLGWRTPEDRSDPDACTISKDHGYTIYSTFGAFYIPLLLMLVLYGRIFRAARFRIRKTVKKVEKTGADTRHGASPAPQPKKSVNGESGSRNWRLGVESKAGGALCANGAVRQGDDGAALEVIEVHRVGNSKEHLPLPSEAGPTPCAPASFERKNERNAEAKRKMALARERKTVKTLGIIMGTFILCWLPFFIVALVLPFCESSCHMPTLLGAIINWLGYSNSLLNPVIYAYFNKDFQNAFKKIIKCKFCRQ
experimental_readout: 5-HT1A ag [%] (%)
Answers are plain numbers, in %.

// worked examples, 5-HT1A ag [%] included
* Cc1cccc(S(=O)(=O)NC2CCN(CCCc3c[nH]c4ccc(F)cc34)C2)c1 (centres unmarked) | 54
* O=S(=O)(NCC1CN(CCOc2cccc3ccccc23)C1)c1ccc2ccccc2c1 | 35
* CC(C)(C)c1ccc(S(=O)(=O)NCC2CN(CCOc3cccc4c3OCCO4)C2)cc1 | 66

State the recorded 5-HT1A ag [%] for every item in the following list.
1. Cc1cccc(S(=O)(=O)NC2CN(CCOc3cccc4c3OCCO4)C2)c1
2. O=S(=O)(NCC1CN(CCOc2cccc3c2OCCO3)C1)c1ccc(Cl)c(Cl)c1

Result:
37
71
